- Tested on: CCRF-CEM
- method.summary: NCI tumour cell line growth inhibition, 48 h
The source made the active and inactive calls. No stated cut-off is given here; in the data, active = GI50 up to about 1.1 µM and inactive = higher.
Choose the fitting class; nothing outside active, inactive is accepted.

Consider the following illustrative entries.
[[record]]
molecule = "COc1ccc(C2SCC(=O)N2NC(=O)C(C)Oc2ccccc2C)cc1 (centres undefined)"
category = "inactive"

[[record]]
molecule = "O=C1C(Cl)=C(Cl)C(=O)N1c1ccc(F)cc1 [FLUOROIMIDE]"
category = "inactive"

[[record]]
molecule = "CCOC(=O)C(Cc1ccccc1)NC(=O)c1nc[nH]c1/N=N/N(C)C (centres undefined)"
category = "inactive"

[[record]]
molecule = "CC(C)=CCC[C@@H](C)C1=C(O)C(=O)C(C)=C(Nc2ccccc2Br)C1=O"
category = "inactive"

[[record]]
molecule = "O=C1CCC(c2nc3ccccc3o2)C(=O)N1 (centres undefined)"
category = "inactive"

[[record]]
molecule = "C#C[C@@H](OC(=O)c1ccc([N+](=O)[O-])cc1)[C@@H]1C[C@H]2O[C@@H]([C@H](C/C=C/CC)OC(=O)c3ccc([N+](=O)[O-])cc3)C[C@H]2O1"
category = "inactive"


Returns: the outcome recorded for COc1cc2ccc1OCc1cccc(n1)COc1ccc(cc1OC)/C=N\CCNCCNCC/N=C\2 in this assay.
inactive

Returns: the outcome recorded for CC[n+]1c(/C=C/c2ccc(N(CCCl)CCCl)cc2)ccc2cc(I)ccc21 in this assay.
active

Returns: the outcome recorded for C[C@]12C[C@H](c3ccccc3)Nc3ccccc3N1C(c1ccccc1)=NO2 in this assay.
inactive
